Entry source: patent US20250197343A1

assay_method_text: Particle size of Luc DNA-encapsulated lipid nanoparticles
Type: physicochemical
measurement_conditions: cationic lipid:DPPC:cholesterol:GM-020=60:10.6:28:1.4 molar ratio
Record form. Attribute: Particle size (nm). Fill in for each entry.
Answers are plain numbers, in nm.

Examples from the recorded data:
[[record]]
compound = "CCCCCOC(=O)CCCCCCCC(=O)OCC(COC(=O)CCCCCCCC(=O)OCCCCC)(COC(=O)CCCCCCCC(=O)OCCCCC)COC(=O)CCCN(C)C [Example 55]"
unit_descriptor = "nm"
val = 186.2

[[record]]
compound = "CCCCCC(CCCCC)CC(=O)OCC(COC(=O)CCCCC(=O)OCCCC)(COC(=O)CCCN(CC)CC)COC(=O)CC(CCCCC)CCCCC [Example 21]"
unit_descriptor = "nm"
val = 131.4


Now take the following compound into account.
(Q) Using the record for CCCCCCCCOC(=O)CCCCC(=O)OCC(COC(=O)CCCCC(=O)OCCCCCCCC)(COC(=O)CCCN(C)C)COC(=O)CC(CCCCC)CCCCC [Example 43] , report its Particle size (nm).
(A) 126.7
